# system_tested: GST-SBP-SLBP (stem-loop binding protein) (Homo sapiens, UniProt Q14493 1-270)
# protocol_summary: targeted RNA Bind-n-Seq; RBNS binding buffer: 25 mM Tris pH 7.5, 150 mM KCl, 3 mM MgCl2, 0.1% Tween, 0.5 mg/mL BSA, 1 mM DTT; 27 nM protein, 750 pM RNA pool; temperature not stated; high values mean tight binding
# reported_conditions: protein: recombinant; tags: N-terminal GST and SBP (pGEX6P1-SBP)
# binding signal per record follows

Solved entries (count: 2):
binder	binding signal
consensus (structured_RNA) RNA: GGUCACGUCUCAAUCAACUCCCAAAGGUUUUUCUCAAAGCCACCCAUCAACAGCUCGCAGUCAAG	2.22 log2 fold change
consensus (structured_RNA) RNA: GGUCACGUCUCAAUCAACUCCCAAAGGCUUUUCUAAGAGCCACCCAUCAACAGCUCGCAGUCAAG	1.33 log2 fold change

Task: Please look up its binding signal: consensus (structured_RNA) RNA: GGUCACGUCUCAAUCAACUCCCAAAGGCUUUUUUCAGAGCCACCCAUCAACAGCUCGCAGUCAAG
Result: 1.75 log2 fold change

Task: Please look up its binding signal: consensus (structured_RNA) RNA: GGUCACGUCUCAAUCAACUCCCAAAGGCUUUUCUAAGGGCCACCCAUCAACAGCUCGCAGUCAAG
Result: 1.52 log2 fold change

Task: Please look up its binding signal: consensus (structured_RNA) RNA: GGUCACGUCUCAAUCAACUCCCAAAGGUCUUUCUUAGGACCACCCAUCAACAGCUCGCAGUCAAG
Result: 0.816 log2 fold change
